- Tested on: MDA-MB-468 breast
- assay text: NCI tumour cell line growth inhibition, 384-well format
This listing pairs molecules with measured TGI.
Respond numerically; units are µM and should not be typed.

# molecule smiles, TGI [µM]
rows = [
    ("Cn1cc(-c2ccc(=O)n(Cc3cccc(-c4ncc(OCCN5CCOCC5)cn4)c3)n2)cn1", 54.6),
]

Attention now shifts to the item below.
Provide measured TGI value, entry: COc1cc(CCc2cc(NC(=O)c3ccc(N4C[C@@H](C)N[C@@H](C)C4)cc3)n[nH]2)cc(OC)c1 6.61

====

Read-out record for NCI-H460 NSCLC: GI50

The cases that follow already have their GI50 on record.
# compound, value type, val
measured = [
    ("Nc1cccc2c1C(=O)N(C1CCC(=O)NC1=O)C2=O (stereo not given)", "GI50", "> 100 µM"),
    ("COc1cc(CCc2cc(NC(=O)c3ccc(N4C[C@@H](C)N[C@@H](C)C4)cc3)n[nH]2)cc(OC)c1", "GI50", "3.39 µM"),
    ("Cn1cc(-c2ccc(=O)n(Cc3cccc(-c4ncc(OCCN5CCOCC5)cn4)c3)n2)cn1", "GI50", "72 µM"),
    ("COc1ccc(N(C)c2nc(C)nc3ccccc23)cc1", "GI50", "< 0.01 µM"),
]

Attention now shifts to the item below.
Give GI50; test system NCI-H460 NSCLC; compound C[C@@H](c1ccc2nccn2c1)n1nnc2ncc(-c3cnn(C)c3)nc21 > 100 µM

====

- Tested on: KM12 colon
- assay text: NCI tumour cell line growth inhibition, 384-well format
value type: GI50

The cases that follow already have their GI50 on record.
# molecule, assay target, val
rows = [
    ("COc1ccc(N(C)c2nc(C)nc3ccccc23)cc1", "KM12 colon", "< 0.01 µM"),
    ("Cn1cc(-c2ccc(=O)n(Cc3cccc(-c4ncc(OCCN5CCOCC5)cn4)c3)n2)cn1", "KM12 colon", "66.1 µM"),
]

Give GI50; test system KM12 colon; molecule C[C@@H](c1ccc2nccn2c1)n1nnc2ncc(-c3cnn(C)c3)nc21 35 µM

Give GI50; test system KM12 colon; molecule COc1cc(CCc2cc(NC(=O)c3ccc(N4C[C@@H](C)N[C@@H](C)C4)cc3)n[nH]2)cc(OC)c1 0.0516 µM

Give GI50; test system KM12 colon; molecule Nc1cccc2c1C(=O)N(C1CCC(=O)NC1=O)C2=O (stereo not given) > 100 µM

====

- System: MDA-MB-468 breast
- assay text: NCI tumour cell line growth inhibition, 384-well format
value type: TGI

The cases that follow already have their TGI on record.
# molecule, TGI
data = [
    ("COc1ccc(N(C)c2nc(C)nc3ccccc23)cc1", "< 0.01 µM"),
    ("Nc1cccc2c1C(=O)N(C1CCC(=O)NC1=O)C2=O (stereo not drawn)", "> 100 µM"),
]

Attention now shifts to the item below.
Provide measured TGI value, entry: C[C@@H](c1ccc2nccn2c1)n1nnc2ncc(-c3cnn(C)c3)nc21 > 100 µM
